pIC50 values by entry
target: Rho-associated protein kinase 2 (Homo sapiens, UniProt O75116); test: human Rho kinase 2 inhibition – biochemical, Kinase-Glo luminescence, S6 peptide, 1536-well, dose response (AID 644)
Sequence (O75116 whole entry): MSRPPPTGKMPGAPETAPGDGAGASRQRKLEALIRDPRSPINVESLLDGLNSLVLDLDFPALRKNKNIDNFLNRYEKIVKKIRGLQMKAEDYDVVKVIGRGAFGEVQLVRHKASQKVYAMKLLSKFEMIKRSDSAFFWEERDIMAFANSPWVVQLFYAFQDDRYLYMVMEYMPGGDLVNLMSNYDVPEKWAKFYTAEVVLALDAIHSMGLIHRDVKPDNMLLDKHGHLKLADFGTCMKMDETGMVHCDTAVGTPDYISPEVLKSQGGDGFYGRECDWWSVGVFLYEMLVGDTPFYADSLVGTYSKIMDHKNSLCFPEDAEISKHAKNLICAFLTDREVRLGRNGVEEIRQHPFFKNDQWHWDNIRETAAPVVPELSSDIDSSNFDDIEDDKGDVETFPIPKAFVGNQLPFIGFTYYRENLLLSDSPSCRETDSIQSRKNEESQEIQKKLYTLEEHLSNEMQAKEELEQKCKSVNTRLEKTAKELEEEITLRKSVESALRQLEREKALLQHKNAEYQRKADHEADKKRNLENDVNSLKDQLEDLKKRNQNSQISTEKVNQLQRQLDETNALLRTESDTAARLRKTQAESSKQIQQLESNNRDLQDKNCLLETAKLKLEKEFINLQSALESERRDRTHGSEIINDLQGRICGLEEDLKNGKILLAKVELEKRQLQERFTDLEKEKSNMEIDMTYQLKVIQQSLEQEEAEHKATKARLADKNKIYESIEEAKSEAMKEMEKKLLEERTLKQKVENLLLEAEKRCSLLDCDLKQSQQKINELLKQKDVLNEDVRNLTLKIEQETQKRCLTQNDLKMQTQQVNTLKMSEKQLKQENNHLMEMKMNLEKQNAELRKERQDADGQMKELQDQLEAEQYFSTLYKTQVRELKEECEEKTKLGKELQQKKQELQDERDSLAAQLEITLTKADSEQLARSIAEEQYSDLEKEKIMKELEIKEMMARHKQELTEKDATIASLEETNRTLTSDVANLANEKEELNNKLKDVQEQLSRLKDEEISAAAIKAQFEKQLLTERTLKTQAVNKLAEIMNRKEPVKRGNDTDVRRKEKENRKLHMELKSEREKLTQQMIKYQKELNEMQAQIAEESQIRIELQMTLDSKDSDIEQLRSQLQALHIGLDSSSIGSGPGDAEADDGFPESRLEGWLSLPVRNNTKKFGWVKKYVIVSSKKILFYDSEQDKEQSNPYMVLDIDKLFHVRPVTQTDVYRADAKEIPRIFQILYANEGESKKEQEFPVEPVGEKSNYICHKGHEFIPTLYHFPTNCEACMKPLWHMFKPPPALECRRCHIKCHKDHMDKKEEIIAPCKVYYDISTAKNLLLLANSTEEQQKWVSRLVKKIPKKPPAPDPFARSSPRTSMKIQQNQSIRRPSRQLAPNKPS
pIC50: −log10 of the molar value.

Field: example entries. Status: answers known.
O=C(Nc1nc(-c2ccncc2)cs1)C1COc2ccccc2O1 (centres undefined): > 8.52
c1ccc2c(c1)[nH]c1cnccc12 [9H-pyrido[3,4-b]indole]: < 4.70
CCN1C(=O)N(CC)C(O)(c2ccccc2)C1(O)c1ccccc1 (centres undefined): < 4.22
O=NCc1c[nH]c2ccccc12: 5.32
Cn1c(CSCc2ccc(Cl)c(Cl)c2)nnc1SCC(=O)Nc1nccs1: < 4.70
CN(C(=O)c1cccc(-n2c(O)c3c(c2O)CC=CC3)c1)C1CCCCC1: < 4.22
CC(C)C(NC(=O)C1CCCCC1)C(=O)Nc1ccncc1 (centres undefined): 5.64
Cc1onc(-c2ccccc2)c1C(=O)N1CCN(C/C=C/c2ccccc2)CC1: < 4.22
Fc1ccccc1Cn1nnc2c(-n3ccnc3)ncnc21: < 4.70
Nc1nc2ccccc2n1C(=O)CCc1ccccc1: < 4.22

IN: Give recorded pIC50 with Rho-associated protein kinase 2 (Homo sapiens, UniProt O75116) for the following molecule: `Oc1ncnc2cc(Cl)ccc12`
OUT: < 4.70

IN: Param readout= pIC50; system= Rho-associated protein kinase 2 (Homo sapiens, UniProt O75116); entry= `CC(=O)n1cc(-c2ccncc2)c2ccccc21` ; returns value.
OUT: 5.09

IN: Entry Cc1[nH]nc2c1C(c1ccc(-c3ccccc3C#N)o1)C(C#N)C(=N)O2 (centres undefined) , system Rho-associated protein kinase 2 (Homo sapiens, UniProt O75116): what pIC50 was measured?
OUT: < 4.70

IN: Field: pIC50 (Rho-associated protein kinase 2 (Homo sapiens, UniProt O75116)). Entry: `CC(C)(C)C(=O)c1sc(Nc2ccccc2)nc1N`
OUT: < 4.22

IN: Observed pIC50 on Rho-associated protein kinase 2 (Homo sapiens, UniProt O75116) for COC(=O)c1cccc2c1-c1ccccc1C2N=O (centres undefined) , please.
OUT: < 4.70

IN: Quick check: pIC50 on Rho-associated protein kinase 2 (Homo sapiens, UniProt O75116), item `Cc1cc(N2CCOCC2)c2c(N)c(C)cc(C)c2n1` ?
OUT: < 4.22

IN: Record lookup: for Rho-associated protein kinase 2 (Homo sapiens, UniProt O75116), what pIC50 belongs to `Nc1nonc1-c1nc2ccccc2[nH]1` ?
OUT: 4.64

IN: Kindly state the measured pIC50 obtained for `Cc1cccc(N2CCN(C(=O)c3cn(C)c(=O)c4c3c3ccccc3n4C)CC2)c1C` with Rho-associated protein kinase 2 (Homo sapiens, UniProt O75116).
OUT: < 4.22

IN: Which pIC50 is reported with Rho-associated protein kinase 2 (Homo sapiens, UniProt O75116) for this entry: `CCN(CC)CCNC(=O)CCCCn1c(=S)[nH]c2c([nH]c3ccc(OC)cc32)c1=O` ?
OUT: < 4.70

IN: Requested read-out pIC50, target or system Rho-associated protein kinase 2 (Homo sapiens, UniProt O75116), entry `COC(=O)c1sc2cnccc2c1N`
OUT: 5.08

IN: Short answer please: pIC50, Rho-associated protein kinase 2 (Homo sapiens, UniProt O75116), entry CCOC(=O)C1=C(CSc2nc(-c3ccncc3)ccc2C#N)OC(=N)C(C#N)C1c1cccnc1 (centres undefined)
OUT: < 4.70

IN: Param readout = pIC50; param system = Rho-associated protein kinase 2 (Homo sapiens, UniProt O75116); param query = `C1=C(c2c[nH]c3ccccc23)CCNC1` ; response: value
OUT: 5.60

IN: # query: pIC50 | item O=C(Nc1ccncc1)C1CCCN(S(=O)(=O)c2cccc3cccnc23)C1 (centres undefined) | system: Rho-associated protein kinase 2 (Homo sapiens, UniProt O75116)
OUT: 5.76

IN: Missing value: pIC50, Rho-associated protein kinase 2 (Homo sapiens, UniProt O75116), entry `CC(=O)c1cccc(NC(=O)NCc2cccs2)c1` . Fill in?
OUT: < 4.22

IN: Any idea what pIC50 came out for CN1c2cccc3cccc(c23)C1N=O (centres undefined) [1-Methyl-1H-benzo[cd]indol-2-one oxime] on Rho-associated protein kinase 2 (Homo sapiens, UniProt O75116)?
OUT: < 4.70

IN: For the record `CC(=O)c1ccc(OCC(O)COc2ccc(C(C)=O)cc2)cc1` , what value of pIC50 is listed for Rho-associated protein kinase 2 (Homo sapiens, UniProt O75116)?
OUT: < 4.22

The values you see were collected from BindingDB's records for doi:10.7270/Q2F769ZM.
